I'd appreciate it if you could supply TGI values for the items below.
test system: U251 CNS; test: NCI tumour cell line growth inhibition, 48 h

Solved entries (count: 3):
### Prompt Lab note: need TGI with U251 CNS for entry Cc1cc2c(C)cc(=O)[nH]c2cc1N , please look it up.
### Response > 100 µM

### Prompt Lab note: need TGI with U251 CNS for entry CCN1C(=O)N(CC)C2C1NN=c1s/c(=C\c3cccnc3)c(=O)n12 (centres undefined) , please look it up.
### Response > 100 µM

### Prompt Lab note: need TGI with U251 CNS for entry Cc1ccc(C(=O)O/N=C2/CCC/C2=C\c2ccccc2)cc1 , please look it up.
### Response > 100 µM

Value sought for every listed compound: TGI.
1. CC1SC(c2c(Cl)cccc2Cl)N(NC(=O)c2[nH]c3ccc(F)cc3c2-c2ccccc2)C1=O (centres undefined)
2. O=C(O)[C@@H]1C[C@@H](O)CN1C(=O)OCc1ccccc1

### Response
["3.51 µM", "> 100 µM"]

Value sought for every listed compound: TGI.
1. COc1cccc(NC(=O)CC(=O)N2N=C(N(CCC#N)c3ccc(Cl)cc3)CC2c2ccccc2)c1 (centres undefined)
2. N#Cc1cnc2cc(OC[C@H](O)CO)c(NC(=O)CC3CSSC3)cc2c1Nc1ccc(OCc2cccc(F)c2)c(Cl)c1
3. N#C/C(=C1\OC(=O)C(c2ccc(Br)cc2)=C1O)c1ccc(Br)cc1
4. COC1(C(=O)N[C@@H](C)c2ccc(-n3cc(F)cn3)nc2)CCC(c2nc(C)cc(Nc3cc(C)[nH]n3)n2)CC1 (some centres undefined)

### Response
1: > 100 µM; 2: 1.33 µM; 3: 26.1 µM; 4: 22.6 µM
